target: cytochrome P450 3A4 (CYP3A4) (Homo sapiens, UniProt P08684)
Sequence (P08684 23-503): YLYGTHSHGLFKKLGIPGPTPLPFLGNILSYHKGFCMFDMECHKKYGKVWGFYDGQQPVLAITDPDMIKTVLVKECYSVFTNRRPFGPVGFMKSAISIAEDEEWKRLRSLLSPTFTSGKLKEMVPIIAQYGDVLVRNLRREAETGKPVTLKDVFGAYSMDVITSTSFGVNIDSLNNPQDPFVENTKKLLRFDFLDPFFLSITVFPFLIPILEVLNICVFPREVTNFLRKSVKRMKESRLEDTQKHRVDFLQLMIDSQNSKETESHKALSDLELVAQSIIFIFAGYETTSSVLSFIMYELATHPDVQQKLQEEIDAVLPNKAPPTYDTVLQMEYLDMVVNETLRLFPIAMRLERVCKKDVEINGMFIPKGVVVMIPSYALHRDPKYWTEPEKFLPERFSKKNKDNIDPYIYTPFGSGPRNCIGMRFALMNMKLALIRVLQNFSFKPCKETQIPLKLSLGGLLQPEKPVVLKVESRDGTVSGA
value-kind: pKd
Give bare numbers, as −log10 of the molar value.

# return pKd of CC(=O)[C@H]1CC[C@H]2[C@@H]3CCC4=CC(=O)CC[C@]4(C)[C@H]3CC[C@]12C [PRG, progesterone] (system: cytochrome P450 3A4 (CYP3A4) (Homo sapiens, UniProt P08684))
3.99
